Origin of the recorded values: patent US4868177A

Record set of IC50 for target or system acetylcholinesterase (Homo sapiens).
Give just the number in µM; leave the unit off.

I am curious: what IC50 value has been reported for Nc1c2c(nc3ccccc13)CCCC2N1CCCC1 (stereo not drawn) ? 18

###

Record set of IC50 for target or system acetylcholinesterase (Homo sapiens, UniProt P22303).
Give just the number in µM; leave the unit off.

Request body: readout IC50, system acetylcholinesterase (Homo sapiens, UniProt P22303), query CCCNC1CCCc2nc3ccccc3c(N)c21 (centres unmarked) . Return the value. 13

Request body: readout IC50, system acetylcholinesterase (Homo sapiens, UniProt P22303), query Nc1c2c(nc3ccccc13)CCCC2N1CCCCC1 (centres unmarked) . Return the value. 8.4

Request body: readout IC50, system acetylcholinesterase (Homo sapiens, UniProt P22303), query Nc1c2c(nc3ccccc13)CCCC2NCc1ccccc1 (centres unmarked) . Return the value. 20

Request body: readout IC50, system acetylcholinesterase (Homo sapiens, UniProt P22303), query CCCCNC1CCCc2nc3ccccc3c(N)c21 (centres unmarked) . Return the value. 49

Request body: readout IC50, system acetylcholinesterase (Homo sapiens, UniProt P22303), query [N-]=[N+]=NC1CCCc2nc3ccccc3c(N)c21 (centres unmarked) [maleate] . Return the value. 12

Request body: readout IC50, system acetylcholinesterase (Homo sapiens, UniProt P22303), query CCNC1CCCc2nc3ccccc3c(N)c21 (centres unmarked) . Return the value. 4.8

Request body: readout IC50, system acetylcholinesterase (Homo sapiens, UniProt P22303), query Nc1c2c(nc3ccccc13)CCCC2NCCc1ccccc1 (centres unmarked) . Return the value. 19

Request body: readout IC50, system acetylcholinesterase (Homo sapiens, UniProt P22303), query COc1ccc(CNC2CCCc3nc4ccccc4c(N)c32)cc1OC (centres unmarked) . Return the value. 39

###

- test.system: acetylcholinesterase (Homo sapiens, UniProt P22303)
- Sequence (P22303 32-614): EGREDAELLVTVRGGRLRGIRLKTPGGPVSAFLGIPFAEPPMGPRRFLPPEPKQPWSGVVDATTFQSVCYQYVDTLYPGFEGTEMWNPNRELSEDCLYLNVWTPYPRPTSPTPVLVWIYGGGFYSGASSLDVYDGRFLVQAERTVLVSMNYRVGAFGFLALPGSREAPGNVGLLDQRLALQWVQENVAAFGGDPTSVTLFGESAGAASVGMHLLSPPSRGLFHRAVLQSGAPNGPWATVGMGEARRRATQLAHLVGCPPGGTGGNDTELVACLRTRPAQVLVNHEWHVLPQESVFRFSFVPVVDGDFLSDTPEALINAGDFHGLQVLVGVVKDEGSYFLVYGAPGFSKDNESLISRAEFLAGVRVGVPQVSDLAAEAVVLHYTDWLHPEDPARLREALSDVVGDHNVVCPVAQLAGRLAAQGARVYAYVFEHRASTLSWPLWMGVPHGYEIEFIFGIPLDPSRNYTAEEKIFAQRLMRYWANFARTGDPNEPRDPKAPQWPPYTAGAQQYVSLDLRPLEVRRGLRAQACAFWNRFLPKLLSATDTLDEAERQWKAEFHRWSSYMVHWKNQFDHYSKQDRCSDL
Here, each record is paired with measured IC50 data.

Nc1c2c(nc3ccccc13)CCCC2N1CCOCC1 (stereo not drawn)	> 1 mM
Nc1c2c(nc3ccccc13)CCCC2N1CCN(c2ccccc2)CC1 (stereo not drawn) [maleate]	> 1 mM

Request body: readout IC50, system acetylcholinesterase (Homo sapiens, UniProt P22303), query CN1CCN(C2CCCc3nc4ccccc4c(N)c32)CC1 (stereo not drawn) . Return the value. > 1 mM
